Test system: human cytomegalovirus (HCMV) strain AD169 and TB 40
Format: cell-based
conditionNotes: human lung fibroblasts, IE staining
Recorded measurements of Inhibitory effect (%) as % inhibition of infection, one per entry
reportedEndpoint: Inhibitory effect (%) as % inhibition of infection

> print(dat)
                                   molecule  observedvalue
1      Cc1cc2nc3c4ccccc4n(CCN(C)C)c3nc2cc1C            20%
2  Cc1oncc1C(=O)Nc1ccc(C(F)(F)F)cc1 [Leflunomide]         25-50%
3              Nc1nc(O)c2ncn(COC(CO)CO)c2n1         20-30%
4                           O=C(O)P(=O)(O)O         20-50%
